# System Tested: BaL virus envelope (HIV-1 groupM)
# Protocol Text: cell-based or functional assay
# key: entry, value: EC50, single-cycle HIV-1 pseudovirus infection of GHOST cells (luciferase)
Metric: EC50, single-cycle HIV-1 pseudovirus infection of GHOST cells (luciferase) (nM)

binder="XNLHFCQLRCKSLGLLGRCAXTXCACV (not fully specified; N-terminal thiopropionic acid (TPA) at position 1; (D)Pro at 21; para-cyclo-hexylmethoxyphenylalanine (U1) at 23; C-terminal amide) [CD4M48_U1]" result_number=2
binder="XNLHFCQLRCKSLGLLGRCAXTXCACV (not fully specified; N-terminal thiopropionic acid (TPA) at position 1; (D)Pro at 21; Phe(para-[phenyl-ethoxy]) (U3) at 23; C-terminal amide) [CD4M48_U3]" result_number=67
binder="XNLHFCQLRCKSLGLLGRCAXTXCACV (not fully specified; N-terminal thiopropionic acid (TPA) at position 1; (D)Pro at 21; biphenylalanine (Bip) at 23; C-terminal amide) [CD4M47]" result_number=108
binder="XNLHFCQLRCKSLGLLGRCAXTFCACV (not fully specified; N-terminal thiopropionic acid (TPA) at position 1; (D)Pro at 21; C-terminal amide, optimized mini-protein, Phe at 23; unlabelled monomer; also called B4T) [CD4M48]" result_number=77
binder="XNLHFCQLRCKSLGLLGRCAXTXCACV (not fully specified; N-terminal thiopropionic acid (TPA) at position 1; (D)Pro at 21; para-cyclo-pentylethoxyphenylalanine (U2) at 23; C-terminal amide) [CD4M48_U2]" result_number=4
